The reader will find reported MICs obtained from 96-well Antibiotic Panel values listed item by item below.
# System: patient sample microbes
# Assay details: Standard 96-well AST assay plate, antimicrobial panel 2
# Format: cell-based
# Parameters: unit not given here
Respond numerically, and do not add a unit to the figure.

CC(C)(O/N=C(\C(=O)N[C@@H]1C(=O)N2C(C(=O)[O-])=C(C[n+]3ccccc3)CS[C@H]12)c1csc(N)n1)C(=O)O [Ceftazidime] : 8
CC(=O)NC[C@H]1CN(c2ccc(N3CCOCC3)c(F)c2)C(=O)O1 [Linezolid] : 2
CC1(C)S[C@@H]2[C@H](NC(=O)[C@H](N)c3ccccc3)C(=O)N2[C@H]1C(=O)O [Ampicillin] : 1
Cc1onc(-c2ccccc2)c1C(=O)N[C@@H]1C(=O)N2[C@@H]1SC(C)(C)[C@@H]2C(=O)O [Oxacillin] : 0.5

Form entry - test system: patient sample microbes; read-out: MICs obtained from 96-well Antibiotic Panel; compound: C[C@H]1COc2c(N3CCN(C)CC3)c(F)cc3c(=O)c(C(=O)O)cn1c23 [Levofloxacin]
0.25

Form entry - test system: patient sample microbes; read-out: MICs obtained from 96-well Antibiotic Panel; compound: CO/N=C(\C(=O)N[C@@H]1C(=O)N2C(C(=O)O)=C(CSc3nc(=O)c(=O)[nH]n3C)CS[C@H]12)c1csc(N)n1 [Ceftriaxone]
4

Form entry - test system: patient sample microbes; read-out: MICs obtained from 96-well Antibiotic Panel; compound: CCO/N=C(\C(=O)N[C@@H]1C(=O)N2C(C(=O)[O-])=C(Sc3nc(-c4cc[n+](C)cc4)cs3)CS[C@H]12)c1nsc(N)n1 [Ceftaroline]
0.25

Form entry - test system: patient sample microbes; read-out: MICs obtained from 96-well Antibiotic Panel; compound: CO[C@H]1/C=C/O[C@@]2(C)Oc3c(C)c(O)c4c(O)c(c(/C=N/N5CCN(C)CC5)c(O)c4c3C2=O)NC(=O)/C(C)=C\C=C\[C@H](C)[C@H](O)[C@@H](C)[C@@H](O)[C@@H](C)[C@H](OC(C)=O)[C@@H]1C [Rifampin]
0.004

Form entry - test system: patient sample microbes; read-out: MICs obtained from 96-well Antibiotic Panel; compound: Cn1nnc(-c2ccc(-c3ccc(N4C[C@H](CO)OC4=O)cc3F)cn2)n1 [Tedizolid]
0.5
